Test system: 786-0 renal
Test: NCI tumour cell line growth inhibition, 48 h
TGI overview
MEASURED PROPERTY: TGI

{"MOLECULE": "O=C(Nc1ccc(Br)cc1)Nc1nn(C(=O)Nc2ccc(Br)cc2)c2ccccc12", "MEASURED PROPERTY": "TGI", "DATA VALUE": "> 100 µM"}
{"MOLECULE": "Cc1c(C#N)c(=N)oc2ccccc12", "MEASURED PROPERTY": "TGI", "DATA VALUE": "> 100 µM"}
{"MOLECULE": "COc1ccc([C@@H](O)c2cc(-c3ncnc4cc(N5CCOCC5)ccc34)c(F)cc2Cl)nn1", "MEASURED PROPERTY": "TGI", "DATA VALUE": "25.3 µM"}
{"MOLECULE": "COC(=O)C(=O)C(C(=O)C(N)=O)c1nc2ccc(C(=O)c3ccccc3)cc2[nH]c1=O (stereo not given)", "MEASURED PROPERTY": "TGI", "DATA VALUE": "> 100 µM"}
{"MOLECULE": "COC(=O)c1ccc(C(=O)OC)c2nc3cc(C)ccc3nc12", "MEASURED PROPERTY": "TGI", "DATA VALUE": "> 100 µM"}
{"MOLECULE": "Clc1ccc2c(c1)[nH]c1c2nc2sccn21", "MEASURED PROPERTY": "TGI", "DATA VALUE": "> 100 µM"}
{"MOLECULE": "COc1cc2oc(-c3ccc4c(c3)OCO4)c(OC)c(=O)c2c(O)c1OC", "MEASURED PROPERTY": "TGI", "DATA VALUE": "> 50 µM"}
{"MOLECULE": "COc1ccccc1NC(=O)C1=C(C)NC(C)=C(C(=O)Nc2ccccc2OC)C1c1ccc(N(C)C)cc1", "MEASURED PROPERTY": "TGI", "DATA VALUE": "> 100 µM"}
{"MOLECULE": "COc1cccc(C23CCCC(C2)N(C)CC3OC(=O)c2ccccc2)c1OC (stereo not given)", "MEASURED PROPERTY": "TGI", "DATA VALUE": "> 100 µM"}
{"MOLECULE": "NNS(=O)(=O)c1cc(C(=O)O)cc(C(=O)O)c1", "MEASURED PROPERTY": "TGI", "DATA VALUE": "> 100 µM"}

---

System: EKVX NSCLC
Assay: NCI tumour cell line growth inhibition, 48 h
Parameter TGI: see the listing below.
MEASURED PROPERTY: TGI

{"SMILES REPRESENTATION": "COC(=O)[C@H]1[C@H]2C[C@@H]3c4[nH]c5cc(OC)ccc5c4CCN3C[C@H]2C[C@@H](OC(=O)/C=C/c2cc(OC)c(OC)c(OC)c2)[C@@H]1OC", "DATA VALUE": "> 100 µM"}
{"SMILES REPRESENTATION": "COc1ccccc1NC(=S)N/N=C/c1ccccn1", "DATA VALUE": "5.08 µM"}
{"SMILES REPRESENTATION": "Cn1ccc2c(c1=O)C(=O)OC2(C)C", "DATA VALUE": "> 100 µM"}
{"SMILES REPRESENTATION": "COc1cc(C)cc2c(-c3c(O)cc(O)c4c3C[C@H](C)N[C@H]4C)cc(-c3cc(-c4c(O)cc(O)c5c4C[C@H](C)N[C@H]5C)c4cc(C)cc(OC)c4c3O)c(O)c12", "DATA VALUE": "> 100 µM"}

---

Tested on: SF-295 CNS
Assay: NCI tumour cell line growth inhibition, 48 h

{"COMPOUND": "COC(=O)C(CC(=O)c1c[nH]c2ccccc12)c1c[nH]c2ccccc12 (stereo unspecified)", "TGI": "> 10 µM"}
{"COMPOUND": "CC(C(=O)O)c1ccc(-c2ccccc2)c(F)c1 (stereo unspecified)", "TGI": "> 100 µM"}
{"COMPOUND": "CCN(CC)CCOc1c(OC)c(Br)cc2c(C)c(C(=O)OC)oc12", "TGI": "2.99 µM"}
{"COMPOUND": "COc1cc2oc(=O)cc(C)c2c(OC)c1OC(C)=O", "TGI": "> 100 µM"}
{"COMPOUND": "S=P(N1CCCC1)(N1CC1)N1CC1", "TGI": "> 100 µM"}
{"COMPOUND": "COC(=O)c1cc(C)ccc1/C=C1\\Cc2c(C)cc(C)cc2C1=O", "TGI": "33.1 µM"}

---

System: SW-620 colon
Assay: NCI tumour cell line growth inhibition, 48 h
Item-by-item account of TGI

{"MOLECULE": "S=P(N1CCCC1)(N1CC1)N1CC1", "TGI": "> 100 µM"}
{"MOLECULE": "Cc1ccc(/C=N\\NC(=O)c2ccncc2)s1", "TGI": "> 100 µM"}
{"MOLECULE": "CCOC(=O)c1c2c(n(Cc3ccccc3)c1C)-c1nc(Cc3ccccc3)[nH]c1C(=O)C2=O", "TGI": "3.28 µM"}
{"MOLECULE": "C=C(CCOC)CCC1CCCCC(=C)[C@H]1O (stereo partly specified)", "TGI": "> 100 µM"}
{"MOLECULE": "CCCCCCCCCCCCCCCCCCNC(=O)OCC(CNS(=O)(=O)CCC[n+]1cccc2ccccc21)COC (stereo unspecified)", "TGI": "11.8 µM"}
{"MOLECULE": "CC(=O)Nc1ccc(/C=C2/NC(=S)N(/C=C3\\C(=O)Oc4ccccc4C3=O)C2=O)cc1", "TGI": "> 100 µM"}
{"MOLECULE": "COc1cc2oc(-c3ccc4c(c3)OCO4)c(OC)c(=O)c2c(O)c1OC", "TGI": "> 50 µM"}
{"MOLECULE": "COc1cc2ncnc3c2cc1OCCCCCN(C)Cc1ccc(Br)cc1N3", "TGI": "> 100 µM"}
{"MOLECULE": "COc1cc(/C=C/c2ccc(OC)c(OC)c2OC)cc(OC)c1OC", "TGI": "> 92.6 µM"}
{"MOLECULE": "COc1cc(CNC(=S)CCCCCCCCCCC(C)C)ccc1O", "TGI": "> 100 µM"}
{"MOLECULE": "COc1cc(C2c3cc4c(cc3[C@@H](OCCN(C)C)C3COC(=O)[C@H]23)OCO4)cc(OC)c1O (stereo partly specified)", "TGI": "3.59 µM"}

---

Test system: SK-MEL-28 melanoma
Assay: NCI tumour cell line growth inhibition, 48 h
MEASURED PROPERTY: TGI (µM)

{"MOLECULE": "Cn1c2ccc(C3=NCCN3)cc2c2cc(C3=NCCN3)ccc21", "SUBJECT OF TEST": "SK-MEL-28 melanoma", "MEASURED PROPERTY": "TGI", "RELATION QUALIFIER": ">", "DATA VALUE": 100}
{"MOLECULE": "ClCc1ccc(C2OCCO2)cc1", "SUBJECT OF TEST": "SK-MEL-28 melanoma", "MEASURED PROPERTY": "TGI", "RELATION QUALIFIER": ">", "DATA VALUE": 58.6}
{"MOLECULE": "O=C(NCCCCCCO)c1cccc2cc3ccccc3nc12", "SUBJECT OF TEST": "SK-MEL-28 melanoma", "MEASURED PROPERTY": "TGI", "RELATION QUALIFIER": "=", "DATA VALUE": 42.5}
{"MOLECULE": "COc1nc(C)cc2c(=O)n(-c3ccccc3)n(CC(O)CN3CCN(c4ccc(Cl)cc4)CC3)c(=O)c12 (centres undefined)", "SUBJECT OF TEST": "SK-MEL-28 melanoma", "MEASURED PROPERTY": "TGI", "RELATION QUALIFIER": ">", "DATA VALUE": 50}
{"MOLECULE": "COC(=O)[C@]1(C)CCC[C@@]2(C)[C@@H]3C[C@@H]4[C@H]5C[C@@]3(CC[C@@H]21)C[C@@]45C", "SUBJECT OF TEST": "SK-MEL-28 melanoma", "MEASURED PROPERTY": "TGI", "RELATION QUALIFIER": "=", "DATA VALUE": 47.1}
{"MOLECULE": "CC(/C=C/NNC1=NC(c2ccccc2)C(c2ccccc2)=NN1)Sc1ccccc1N (centres undefined)", "SUBJECT OF TEST": "SK-MEL-28 melanoma", "MEASURED PROPERTY": "TGI", "RELATION QUALIFIER": "=", "DATA VALUE": 21.3}
{"MOLECULE": "C/C(=N\\NC(=S)N1CCN(c2ccccn2)CC1)c1nccs1", "SUBJECT OF TEST": "SK-MEL-28 melanoma", "MEASURED PROPERTY": "TGI", "RELATION QUALIFIER": "=", "DATA VALUE": 19.9}
{"MOLECULE": "COc1cc2c(cc1O)CCN(C)[C@H]2Cc1ccc(Oc2c(O)c(OC)cc3c2C[C@H]2c4c(c(OC)c(OC)c(OC)c4-3)CCN2C)cc1", "SUBJECT OF TEST": "SK-MEL-28 melanoma", "MEASURED PROPERTY": "TGI", "RELATION QUALIFIER": "=", "DATA VALUE": 11.7}
{"MOLECULE": "COc1ccc2ccccc2c1CN1CCOCCOCCN(Cc2c(OC)ccc3ccccc23)CCOCCOCC1", "SUBJECT OF TEST": "SK-MEL-28 melanoma", "MEASURED PROPERTY": "TGI", "RELATION QUALIFIER": ">", "DATA VALUE": 65}
